method-notes: RBC partitioning in rat blood and plasma
Format: in vitro ADME
test-parameters: fresh whole blood and reference plasma
recorded-metric: blood plasma ratio at 0 min, 1000 nM
Answers are plain numbers.

Sure, the documented blood plasma ratio at 0 min, 1000 nM for CC(/C=C/C=C(\C)C(=O)O)=C\C=C\C=C(C)\C=C\C=C(/C)C(=O)O is 0.36

###

tested-system: CYP2C8 (Homo sapiens, UniProt P10632)
Sequence (P10632 1-490): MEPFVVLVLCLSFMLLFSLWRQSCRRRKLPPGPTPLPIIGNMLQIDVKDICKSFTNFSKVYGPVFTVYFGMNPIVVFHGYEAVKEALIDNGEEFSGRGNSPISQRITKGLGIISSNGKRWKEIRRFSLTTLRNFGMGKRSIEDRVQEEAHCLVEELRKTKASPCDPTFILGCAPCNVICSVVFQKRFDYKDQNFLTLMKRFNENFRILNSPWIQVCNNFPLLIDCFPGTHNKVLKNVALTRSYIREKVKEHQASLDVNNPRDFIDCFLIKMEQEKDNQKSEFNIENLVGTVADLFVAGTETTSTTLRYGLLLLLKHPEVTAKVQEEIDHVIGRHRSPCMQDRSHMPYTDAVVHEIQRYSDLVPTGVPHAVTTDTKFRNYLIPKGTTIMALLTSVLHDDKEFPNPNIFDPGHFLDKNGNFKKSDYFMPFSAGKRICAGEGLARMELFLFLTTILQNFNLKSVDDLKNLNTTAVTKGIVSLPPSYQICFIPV
method-notes: CYP inhibition in HLM, CYP2C8
Type: biochemical
test-parameters: IC50 (μM), amodiaquine N-deethylation
recorded-metric: IC50 (µM)
Answers are plain numbers, in µM.

Per the records, this compound ( CC(/C=C/C=C(\C)C(=O)O)=C\C=C\C=C(C)\C=C\C=C(/C)C(=O)O [crocetin] ) has IC50 equal to 35.3
